- test.summary: NCI Yeast Anticancer Drug Screen. Data for the sgs1 mgt1 strain (AID 161);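 further: 0% = growth of cultures given vehicle only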
- particulars: S. cerevisiae sgs1 mgt1 strain, at 50.0 µM, stronger effect = higher value
Compounds without any hit were thinned out: in the full panel of roughly 79,000, 15% have a hit.
measurement.name: growth inhibition (%)
Please reply with the bare figure in % and do not write the unit itself.

A selection of reference data follows.
Find the recorded growth inhibition belonging to O=C(/C=C\c1ccccc1)N1c2ccccc2CC1c1c[nH]c2ccccc12 (stereo unspecified) and report it.
10.3

Find the recorded growth inhibition belonging to CN(C)CCC(/C=C/c1ccccc1)=N\Nc1ccc(Cl)cc1Cl and report it.
99.4

Find the recorded growth inhibition belonging to CC(C)c1ccc(S(=O)(=O)c2ccc([N+](=O)[O-])cc2[N+](=O)[O-])cc1 and report it.
96.8

Find the recorded growth inhibition belonging to COc1ccc(CN(C)c2c(C)ccc3ccccc23)cc1 and report it.
23.3

Find the recorded growth inhibition belonging to Clc1ccccc1CN1COc2c(ccc3cccnc23)C1 and report it.
55.5

Continuing:
Find the recorded growth inhibition belonging to ClCc1nnc2n1-c1ccc(Cl)cc1SC2 and report it.
35.3
